type: in vivo, patients with gout; conditions: human, plasma, oral, Oxypurinol Cmax; ALLO 300 mg/LESU 600 mg co-administration; geometric mean; n = 10
Measurement label: Cmax (ng/mL)
Answer format: numeric, ng/mL implied, no suffix.

Recorded Cmax for O=c1[nH]c(=O)c2c[nH]nc2[nH]1 , please?
9660
